- Test context: human gut metagenome, 24 h, 2 µM; also: call rule not given here
Experimental endpoint: Bacterial Biotransformation

CCCCC1=NC2(CCCC2)C(=O)N1Cc1ccc(-c2ccccc2-c2nnn[nH]2)cc1 = Compound metabolized
CCOc1ccc(NC(C)=O)cc1 = Compound NOT metabolized
COc1ccc2c(c1OC)C(=O)O[C@@H]2[C@H]1c2c(cc3c(c2OC)OCO3)CCN1C = Compound NOT metabolized
Nc1nc2ccc(OC(F)(F)F)cc2s1 = Compound metabolized
CCC(COC(=O)c1cc(OC)c(OC)c(OC)c1)(c1ccccc1)N(C)C.O=C(O)/C=C\C(=O)O (centres undefined) = Compound metabolized
OC(CCN1CCCCC1)(c1ccccc1)C1CC2C=CC1C2 (centres undefined) = Compound metabolized
CC(C)(C#N)c1cc(Cn2cncn2)cc(C(C)(C)C#N)c1 = Compound metabolized
CC(=O)O[C@]1(C(C)=O)CC[C@H]2[C@@H]3C=C(Cl)C4=CC(=O)[C@@H]5C[C@@H]5[C@]4(C)[C@H]3CC[C@@]21C [CYPROTERONE ACETATE] = Compound metabolized
COc1c2occc2cc2ccc(=O)oc12 = Compound metabolized

====

- Assay info: The drug is tested on Z-004 corresponding to metagenome with ENA study accession number: PRJEB37062 and ENA sample accession number: ERS12561804 for biotransformation under anaerobic condition. The drug concentrations were measured over 9 timepoints collected between 0 and 24 hours of incubation by liquid-chromatography-coupled mass spectrometry (LC–MS)
- Test context: 2 µM
Experimental endpoint: Bacterial Biotransformation

CCN(CC)CCNC(C(=O)OCCC(C)C)c1ccccc1.Cl.Cl (stereo not drawn) = Compound NOT metabolized
COc1c(C)c2c(c(O)c1C/C=C(\C)CCC(=O)OCCN1CCOCC1)C(=O)OC2 [MYCOPHENOLATE MOFETIL] = Compound metabolized
O=C(NCc1ccccc1)OCCO [BURAMATE] = Compound NOT metabolized
CC(Oc1c(Cl)cccc1Cl)C1=NCCN1 (stereo not drawn) = Compound NOT metabolized
COc1cc2nc(N3CCN(C(=O)c4ccco4)CC3)nc(N)c2cc1OC = Compound NOT metabolized
CC(O)(CS(=O)(=O)c1ccc(F)cc1)C(=O)Nc1ccc(C#N)c(C(F)(F)F)c1 (stereo not drawn) [BICALUTAMIDE] = Compound NOT metabolized
CCN1CCCC1CNC(=O)c1cc(S(N)(=O)=O)ccc1OC (stereo not drawn) [SULPIRIDE] = Compound metabolized
COc1ccc2c3c1O[C@H]1C[C@@H](O)C=C[C@@]31CCN(C)C2 = Compound NOT metabolized
CC(C)c1c(C(=O)Nc2ccccc2)c(-c2ccccc2)c(-c2ccc(F)cc2)n1CC[C@@H](O)C[C@@H](O)CC(=O)O = Compound NOT metabolized
Fc1ccc([C@@H]2CCNC[C@H]2COc2ccc3c(c2)OCO3)cc1 = Compound NOT metabolized
Cc1nc(-c2ccc(OCC(C)C)c(C#N)c2)sc1C(=O)O = Compound NOT metabolized
COC(=O)C1=C(C)NC(C)=C(C(=O)OC(C)C)C1c1cccc2nonc12 (stereo not drawn) = Compound metabolized
COc1ccccc1N1CCN(CC(O)COc2cccc3ccccc23)CC1 (stereo not drawn) = Compound NOT metabolized
CNCCC(Oc1ccc(C(F)(F)F)cc1)c1ccccc1 (stereo not drawn) = Compound NOT metabolized
CCCc1nn(C)c2c(=O)[nH]c(-c3cc(S(=O)(=O)N4CCN(C)CC4)ccc3OCC)nc12.O=C(O)CC(O)(CC(=O)O)C(=O)O [SILDENAFIL CITRATE] = Compound NOT metabolized
O=C1NCC2(CCN(CCc3ccccc3)CC2)O1 [FENSPIRIDE] = Compound NOT metabolized
COC(=O)[C@H]1[C@H]2C[C@@H]3c4[nH]c5cc(OC)ccc5c4CCN3C[C@H]2C[C@@H](OC(=O)c2cc(OC)c(OC)c(OC)c2)[C@@H]1OC = Compound NOT metabolized
CN1C(=O)CCS(=O)(=O)C1c1ccc(Cl)cc1 (stereo not drawn) = Compound NOT metabolized

====

- Assay info: The drug is tested on WLS-370 corresponding to human gut metagenome with ENA study accession number: PRJEB37062 and ENA sample accession number: ERS12561793 for biotransformation under anaerobic condition. The drug concentrations were measured over 9 timepoints collected between 0 and 24 hours of incubation by liquid-chromatography-coupled mass spectrometry (LC–MS)
- Test context: 2 µM
Where a SMILES comes first, the peptide text is derived from it. [ ]: non-standard residue; d: D form. pGlu = O=C1CC[C@@H](C(=O)O)N1; Thz = O=C(O)[C@@H]1CSCN1
Experimental endpoint: Bacterial Biotransformation

COc1ccccc1OCC(O)COC(N)=O (stereo not given) = Compound NOT metabolized
O=C1CC[C@@H](C(=O)N2CSC[C@H]2C(=O)O)N1 [PIDOTIMOD] ([pGlu]-[Thz]-OH) = Compound NOT metabolized
COc1ccccc1N1CCN(CC(O)COc2cccc3ccccc23)CC1 (stereo not given) = Compound NOT metabolized
CCC(=O)NCC[C@@H]1CCc2ccc3c(c21)CCO3 = Compound metabolized
Cc1ccc(S(=O)(=O)NC(=O)NN2CC3CCCC3C2)cc1 (stereo not given) [GLICLAZIDE] = Compound metabolized

====

- Test context: human gut metagenome, 24 h, 2 µM
Experimental endpoint: Bacterial Biotransformation

COC1=CC(=O)C[C@@H](C)[C@]12Oc1c(Cl)c(OC)cc(OC)c1C2=O = Compound metabolized
CC(C)NCC(O)c1ccc(NS(C)(=O)=O)cc1 (centres undefined) = Compound NOT metabolized
C#C[C@]1(O)CC[C@H]2[C@@H]3CCC4=CC(=O)CC[C@@H]4[C@H]3CC[C@@]21CC = Compound metabolized
CN(C)CC(c1ccc(O)cc1)C1(O)CCCCC1.O=C(O)CCC(=O)O (centres undefined) [DESVENLAFAXINE SUCCINATE] = Compound NOT metabolized
O=C(NCc1ccccc1)OCCO [BURAMATE] = Compound NOT metabolized
CNC(=C[N+](=O)[O-])NCCSCc1ccc(CN(C)C)o1 = Compound metabolized
Cc1ccnc2c1NC(=O)c1cccnc1N2C1CC1 = Compound metabolized
CCCC(=O)Nc1ccc(OCC(O)CNC(C)C)c(C(C)=O)c1 (centres undefined) = Compound metabolized
C[C@@H]1C[C@H]2[C@@H]3CCC4=CC(=O)C=C[C@]4(C)[C@@]3(F)[C@@H](O)C[C@]2(C)[C@@]1(O)C(=O)CO = Compound NOT metabolized

====

- Test context: human gut metagenome, 24 h, 2 µM
Experimental endpoint: Bacterial Biotransformation

CCOC(=O)[C@H](CCc1ccccc1)N[C@@H](C)C(=O)N1[C@H](C(=O)O)C[C@@H]2CCC[C@@H]21 = Compound metabolized
CC(C)N(CCC(C(N)=O)(c1ccccc1)c1ccccn1)C(C)C.O=P(O)(O)O (stereo not drawn) [DISOPYRAMIDE PHOSPHATE] = Compound NOT metabolized
CC(C)OC(=O)C(C)(C)Oc1ccc(C(=O)c2ccc(Cl)cc2)cc1 [FENOFIBRATE] = Compound NOT metabolized
CCC1(c2ccc(N)cc2)CCC(=O)NC1=O (stereo not drawn) [AMINOGLUTETHIMIDE] = Compound NOT metabolized
CCN1CCCC1CNC(=O)c1cc(S(N)(=O)=O)ccc1OC (stereo not drawn) [SULPIRIDE] = Compound NOT metabolized
CC(C)(C(=O)O)c1ccc(C(O)CCCN2CCC(C(O)(c3ccccc3)c3ccccc3)CC2)cc1 (stereo not drawn) [FEXOFENADINE] = Compound NOT metabolized
COc1ccccc1OCC(O)CN1CCN(CC(=O)Nc2c(C)cccc2C)CC1 (stereo not drawn) = Compound NOT metabolized
CCC(=O)NCC[C@@H]1CCc2ccc3c(c21)CCO3 = Compound metabolized
O=P(O)(O)O.c1ccc(CN(CC2=NCCN2)c2ccccc2)cc1 [ANTAZOLINE PHOSPHATE] = Compound NOT metabolized
COc1c2occc2cc2ccc(=O)oc12 = Compound metabolized
Cc1ccccc1N1C(=O)c2cc(S(N)(=O)=O)c(Cl)cc2NC1C (stereo not drawn) = Compound NOT metabolized
O=C(Nc1ccccc1)OCC(CN1CCCCC1)OC(=O)Nc1ccccc1 (stereo not drawn) = Compound metabolized
Br.CN(C)CCCC1(c2ccc(F)cc2)OCc2cc(C#N)ccc21 (stereo not drawn) [CITALOPRAM HYDROBROMIDE] = Compound NOT metabolized
Cc1nc2n(c(=O)c1CCN1CCC(c3noc4cc(F)ccc34)CC1)CCCC2O (stereo not drawn) = Compound metabolized
CN1C[C@H](C(=O)N[C@]2(C)O[C@@]3(O)[C@@H]4CCCN4C(=O)[C@H](Cc4ccccc4)N3C2=O)C=C2c3cccc4[nH]cc(c34)C[C@H]21.CN1C[C@H](C(=O)N[C@]2(C)O[C@@]3(O)[C@@H]4CCCN4C(=O)[C@H](Cc4ccccc4)N3C2=O)C=C2c3cccc4[nH]cc(c34)C[C@H]21.O=C(O)C(O)C(O)C(=O)O [ERGOTAMINE TARTRATE] = Compound metabolized
CCCC1O[C@@H]2C[C@H]3[C@@H]4CCC5=CC(=O)C=C[C@]5(C)[C@H]4[C@@H](O)C[C@]3(C)[C@]2(C(=O)CO)O1 (stereo partly drawn) [BUDESONIDE] = Compound metabolized
CC(CN1c2ccccc2Sc2ccccc21)N(C)C (stereo not drawn) = Compound metabolized
CN(C(=O)CN(CCO)CC(=O)N(C)C(C)(C)Cc1ccccc1)C(C)(C)Cc1ccccc1 = Compound metabolized
N#Cc1ccc(C(c2ccc(C#N)cc2)n2cncn2)cc1 = Compound NOT metabolized
CN(C)CCc1c[nH]c2ccc(Cn3cncn3)cc12.O=C(O)c1ccccc1 [RIZATRIPTAN BENZOATE] = Compound NOT metabolized
CN1CCN(CC/C=C2/c3ccccc3Sc3ccc(S(=O)(=O)N(C)C)cc32)CC1 = Compound metabolized
CN1C(=O)CCS(=O)(=O)C1c1ccc(Cl)cc1 (stereo not drawn) = Compound NOT metabolized
Clc1ccc(Cn2c(CN3CCCC3)nc3ccccc32)cc1 = Compound metabolized
CC(C)NCC(O)COc1ccc(CCOCC2CC2)cc1 (stereo not drawn) = Compound NOT metabolized
c1ccc([C@H]2CN3CCSC3=N2)cc1 = Compound metabolized
OC(Cn1cncn1)(Cn1cncn1)c1ccc(F)cc1F = Compound NOT metabolized
OC(CCN1CCCCC1)(c1ccccc1)C1CC2C=CC1C2 (stereo not drawn) = Compound NOT metabolized
CNC(=C[N+](=O)[O-])NCCSCc1csc(CN(C)C)n1 = Compound metabolized
CCCC(=O)Nc1ccc(OCC(O)CNC(C)C)c(C(C)=O)c1 (stereo not drawn) = Compound metabolized
CCCc1nn(C)c2c(=O)[nH]c(-c3cc(S(=O)(=O)N4CCN(C)CC4)ccc3OCC)nc12.O=C(O)CC(O)(CC(=O)O)C(=O)O [SILDENAFIL CITRATE] = Compound metabolized
CCN(CC)CCOCCOC(=O)C1(c2ccccc2)CCCC1.O=C(O)CC(O)(CC(=O)O)C(=O)O [CARBETAPENTANE CITRATE] = Compound NOT metabolized
COC(=O)C1=C(C)NC(C)=C(C(=O)OC(C)C)C1c1cccc2nonc12 (stereo not drawn) = Compound metabolized
CC(C)c1c(C(=O)Nc2ccccc2)c(-c2ccccc2)c(-c2ccc(F)cc2)n1CC[C@@H](O)C[C@@H](O)CC(=O)O = Compound NOT metabolized
